targetEntity: human Lck enzyme (Homo sapiens, UniProt P06239)
Construct: purchased Carna Biosciences, Inc. 08-170
Sequence (P06239 whole entry): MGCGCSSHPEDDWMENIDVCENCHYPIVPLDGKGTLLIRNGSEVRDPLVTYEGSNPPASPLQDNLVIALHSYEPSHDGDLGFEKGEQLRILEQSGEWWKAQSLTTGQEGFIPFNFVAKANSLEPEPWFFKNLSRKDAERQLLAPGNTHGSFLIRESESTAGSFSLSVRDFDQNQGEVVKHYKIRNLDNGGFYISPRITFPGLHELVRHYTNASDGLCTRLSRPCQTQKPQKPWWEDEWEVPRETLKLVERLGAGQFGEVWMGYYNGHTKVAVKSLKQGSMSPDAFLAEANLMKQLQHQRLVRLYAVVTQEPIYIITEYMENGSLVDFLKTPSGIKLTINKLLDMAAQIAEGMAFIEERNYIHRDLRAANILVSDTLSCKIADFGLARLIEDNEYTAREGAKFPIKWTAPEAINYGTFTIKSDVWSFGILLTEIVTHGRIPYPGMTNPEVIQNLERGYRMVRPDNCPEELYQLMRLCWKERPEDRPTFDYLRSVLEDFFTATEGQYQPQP
assayText: Lck enzyme inhibitory activity (time-resolved fluorometry, biotinylated peptide phosphorylation)
Assay type: biochemical
runParameters: biotinylated peptide phosphorylation, read-out: LCK_IC50
pIC50: −log10 of the molar value.
measuredParameter: pIC50

compoundStructure	targetEntity	pIC50
Cc1cc(Oc2ccccc2F)ccc1-n1ncc(C(=O)c2cc3cc(OCC(F)F)c(C4CCN(S(=O)(=O)C5CC5)CC4)cc3[nH]2)c1N	human Lck enzyme (Homo sapiens, UniProt P06239)	7.92

[P] Cc1cc(Oc2ccccc2F)cc(F)c1-n1ncc(C(=O)c2cc3cc(OC(F)F)c(N4CCOC4=O)cc3[nH]2)c1N
[Q] COc1cc2cc(C(=O)c3cnn(-c4cnc(Oc5ccccc5F)cc4C)c3N)[nH]c2cc1NS(=O)(=O)CC(=O)N1CCOCC1
Exercise: Param pair: P , Q . Output: the one whose pIC50 is numerically greater. State your choice using its label.
Key: Q
